Answer each item with its documented IC50.
- Test system: MCF7
- Procedure details: Anticancer against human MCF7 cells assessed as tumor growth inhibition after 72 hrs by SRB assay
- Format: functional, cell-based
- Cond: MCF7, 72 h

| Test smiles | Assay system | Result |
| --- | --- | --- |
| Cc1cc(NS(=O)(=O)c2ccc(N/C=C(/C#N)C(=O)Nc3ccc(Br)cc3)cc2)no1 | MCF7 | 14 µM |
| NC(=O)c1cnc2ccc(C(=O)/C=C/c3ccc(Cl)cc3)cc2c1Nc1ccc(Cl)cc1 | MCF7 | 277 µM |
| NC(=O)c1cnc2ccc(-c3csc(NC(=S)Nc4ccccc4)n3)cc2c1Nc1ccc(Cl)cc1 | MCF7 | 326 µM |
| Cc1ccc(Nc2c(C(N)=O)cnc3ccc(C(=O)/C=C/c4ccc(N(C)C)cc4)cc23)cc1 | MCF7 | 2.16 µM |
| Cc1cc(NS(=O)(=O)c2ccc3ncc(C(N)=O)c(Nc4ccc(Cl)cc4)c3c2)no1 | MCF7 | 145 µM |

Please state IC50 for every compound in the list that follows.
1. NC(=O)c1cnc2ccc(-c3csc(NC(=S)Nc4ccccc4)n3)cc2c1Nc1ccc(Br)cc1
2. Cc1ccc(NC(=O)/C(C#N)=C\Nc2ccc(S(=O)(=O)Nc3cc(C)on3)cc2)cc1
3. CN(C)c1ccc(/C=C/C(=O)c2ccc3ncc(C(N)=O)c(Nc4ccc(Br)cc4)c3c2)cc1
4. Cc1ccc(Nc2c(C(N)=O)cnc3ccc(C(=O)/C=C/c4ccc(Cl)cc4)cc23)cc1

["657 µM", "50.9 µM", "51 µM", "41.2 µM"]
